assay: qHTS assay to identify small molecule HDAC inhibitors (AID 1259364); conditions: HCT-116 HDAC-Glo I/II luminescence, 2 h; series mostly up to 92.4 µM;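 note: wild-type HCT-116 cells with endogenous class I/II HDAC activity; nearly all actives have a fitted effect of over 45% in size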
Results filed as inconclusive are left out. The source made the active and inactive calls. Calls come from the whole dose curve; as a rule, active = well fitted inhibition curve with a large enough effect in the repeat runs; inconclusive = weak or mixed curves; inactive = flat fitted curve, though single readings scatter.
Possible outcomes: true (active), false (inactive)

# compound, assignedClass
data = [
    ("CCCc1ccccc1O", "false"),
    ("Oc1ccc2c(c1)OC[C@@H](N1CCC(O)(c3ccc(F)cc3)CC1)[C@H]2O", "true"),
    ("O=c1[nH]c2ccccc2c(=O)n1CCCl", "false"),
    ("COC[C@H](c1ccc(C(F)(F)F)cc1)N1CCN(C2(C)CCN(C(=O)c3c(C)ncnc3C)CC2)C[C@H]1C", "false"),
    ("C=CCOc1nc(OCC=C)nc(OCC=C)n1", "false"),
    ("CCCC(C)CO (stereo unspecified)", "false"),
]

* * *

assay: qHTS RealTime-Glo MT Cell Viability Assay in HepG2 cells - 40 hour (AID 1224870); conditions: RealTime-Glo luminescence; series mostly up to 76.8 µM; note: nearly all actives have a fitted effect of over 50% in size
Results filed as inconclusive are left out. The source made the active and inactive calls. Calls come from the whole dose curve; as a rule, active = well fitted cell-killing curve with a large enough effect in the repeat runs; inconclusive = weak or mixed curves, or effect the other way; inactive = flat fitted curve, though single readings scatter.
measure: outcome

# molecule, endpointValue
rows = [
    ("O=S(=O)(O)c1ccccc1O", "inactive"),
    ("CC(C)(C)N(CCO)CCO", "inactive"),
    ("CC(=O)O[C@H](CC(=O)[O-])C[N+](C)(C)C", "inactive"),
    ("CCCCC=O", "inactive"),
    ("N#CCc1ccccc1[N+](=O)[O-]", "inactive"),
    ("CCCCCN(CCCCC)C(=O)C(CCC(=O)O)NC(=O)c1ccc(Cl)c(Cl)c1 (stereo not drawn)", "inactive"),
    ("CCOC(=O)[C@H](CCc1ccccc1)N[C@@H](C)C(=O)N1CCC[C@H]1C(=O)O", "inactive"),
    ("COc1ccc2cc(C=O)ccc2c1", "inactive"),
]

* * *

biological target: Glucocorticoid receptor (Homo sapiens) (UniProt P04150); experiment: qHTS assay to identify small molecule agonists of the glucocorticoid receptor (GR) signaling pathway (AID 720691); settings: GR-bla HeLa, beta-lactamase reporter ratio, 18 h; series mostly up to 62.4 µM
Sequence (P04150 whole entry, looked up): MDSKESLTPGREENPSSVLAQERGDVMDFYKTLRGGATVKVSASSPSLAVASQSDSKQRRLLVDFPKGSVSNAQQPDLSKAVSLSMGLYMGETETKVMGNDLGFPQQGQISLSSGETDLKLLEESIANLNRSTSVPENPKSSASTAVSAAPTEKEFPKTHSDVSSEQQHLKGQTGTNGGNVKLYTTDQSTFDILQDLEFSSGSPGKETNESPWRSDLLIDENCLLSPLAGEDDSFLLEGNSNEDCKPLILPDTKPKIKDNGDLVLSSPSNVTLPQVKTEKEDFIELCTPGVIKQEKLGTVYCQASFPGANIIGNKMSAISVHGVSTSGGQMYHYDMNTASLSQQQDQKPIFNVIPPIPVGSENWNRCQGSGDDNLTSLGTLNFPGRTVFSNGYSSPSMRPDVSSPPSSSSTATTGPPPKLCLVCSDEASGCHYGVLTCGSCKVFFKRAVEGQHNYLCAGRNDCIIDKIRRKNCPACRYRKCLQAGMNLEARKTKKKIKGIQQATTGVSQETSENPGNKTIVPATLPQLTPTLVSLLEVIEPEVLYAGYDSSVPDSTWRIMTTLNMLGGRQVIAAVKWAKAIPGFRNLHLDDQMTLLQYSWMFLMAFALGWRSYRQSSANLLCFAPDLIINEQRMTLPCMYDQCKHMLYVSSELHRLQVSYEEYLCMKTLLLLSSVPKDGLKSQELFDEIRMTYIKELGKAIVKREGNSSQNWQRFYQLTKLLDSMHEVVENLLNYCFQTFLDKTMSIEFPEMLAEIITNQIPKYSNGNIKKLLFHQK
Active and inactive are the calls of the source. Calls follow the shape of the dose curve; as a rule, active = well fitted activation curve with a large enough effect in the signal ratio in the repeat runs (not every such curve was filed as active); inconclusive = weak or mixed curves, or effect the other way; inactive = no such curve, though single readings can be large or run the other way; the % refers to the signal ratio.
Possible outcomes: active, inactive

# compound, assignedClass
rows = [
    ("NC1CCN(c2cccc(Cl)n2)CC1", "inactive"),
    ("CCCCCCC(CCCCCCCCCCC(=O)OCC(COC(C)=O)OC(C)=O)OC(C)=O (configuration not stated)", "inactive"),
    ("CC(C)CCCC(C)CCCC(C)CCCCC(C)CCCC(C)CCCC(C)C (configuration not stated)", "inactive"),
    ("CCOC(=O)Nc1ccc2c(c1)N(C(=O)CCN1CCOCC1)c1ccccc1S2", "inactive"),
    ("CCCCCCCCCCCCI", "inactive"),
    ("CC(C)c1cccc(O)c1", "inactive"),
    ("OCc1ccccn1", "inactive"),
    ("CCCCN(CCO)CCO", "inactive"),
    ("CCCc1ccccc1O", "inactive"),
    ("CC1=CC(C)C(C=O)C(C)C1 (configuration not stated)", "inactive"),
    ("CC(C)CCOC(=O)CC(C)C", "inactive"),
    ("Cc1nc(-c2ccc(OCC(C)C)c(C#N)c2)sc1C(=O)O", "inactive"),
    ("CC(C)c1cccc(C(C)C)c1N", "inactive"),
    ("NCCN1CCNC1=O", "inactive"),
    ("CCCCc1ccc2cccc(S(=O)(=O)O)c2c1", "inactive"),
    ("O=C(O)c1ccccc1S", "inactive"),
    ("C=CCOc1nc(OCC=C)nc(OCC=C)n1", "inactive"),
    ("Nc1[nH]c(=O)ncc1F", "inactive"),
    ("N#CC1(O)CCCCC1", "inactive"),
    ("CC(O)CN(CCCN(C)C)CCCN(C)C (configuration not stated)", "inactive"),
    ("CC(C)[C@H](N)C(=O)OCCOCn1cnc2c(=O)[nH]c(N)nc21", "inactive"),
    ("COC(=O)C1=C(C)NC(C)=C(C(=O)OCC(C)=O)C1c1ccccc1[N+](=O)[O-] (configuration not stated)", "inactive"),
    ("CCCCCCOC(=O)CC(CC(=O)OCCCCCC)(OC(=O)CCC)C(=O)OCCCCCC", "inactive"),
    ("O=C(O)C(O)[C@H](O)[C@@H](O)[C@H](O)[C@H](O)CO (some centres not stated)", "inactive"),
    ("O=C(O)c1cccc(C(=O)O)n1", "inactive"),
    ("COc1cc(C)cc(O)c1", "inactive"),
    ("COC(=O)c1ccc(C(=O)OC)c(C(=O)OC)c1", "inactive"),
    ("CC(CCO)CCCC(C)(C)O (configuration not stated)", "inactive"),
    ("CCN(CC)S(=O)(=O)c1ccc(C(=O)O)cc1", "inactive"),
    ("CC(=O)O[C@H](CC(=O)[O-])C[N+](C)(C)C", "inactive"),
    ("O=Cc1ccccc1[N+](=O)[O-]", "inactive"),
    ("CCCOCC(C)OCC(C)O (configuration not stated)", "inactive"),
    ("CCCCCCCCCCCCCCCCCCOCC(O)CO (configuration not stated)", "active"),
    ("CCCCCCCCN(C)CCCCCCCC", "inactive"),
    ("CCN(CC)C(=O)c1ccc(O)c(OC)c1", "inactive"),
    ("CCCC(=O)O[C@]1(C(=O)CCl)[C@@H](C)C[C@H]2[C@@H]3CCC4=CC(=O)C=C[C@]4(C)[C@@]3(F)C(=O)C[C@@]21C", "active"),
    ("COC(=O)CCCC(=O)O", "inactive"),
    ("C1C2OC2C2C1C1CC2C2OC12 (configuration not stated)", "inactive"),
    ("CCCCNc1ccccc1", "inactive"),
    ("COCCOC(=O)CC#N", "inactive"),
    ("Cc1cc(C)c(NC(=O)CN(CC(=O)O)CC(=O)O)c(C)c1Br", "inactive"),
    ("CCC(=O)Nc1cccc(N)c1", "inactive"),
    ("O=C(O)/C=C/c1ccc(Cn2ccnc2)cc1", "inactive"),
    ("C#CC(O)C(CC)CCCC (configuration not stated)", "inactive"),
    ("CC(=O)NC(Cc1ccccc1)C(=O)O (configuration not stated)", "inactive"),
    ("CC(=O)c1ccc(C)cc1", "inactive"),
    ("CC12CCC(CC1=O)C2(C)C (configuration not stated)", "inactive"),
    ("CCN1CCN(c2cc3c(cc2F)c(=O)c(C(=O)O)cn3C2CC2)CC1", "inactive"),
    ("NS(=O)(=O)c1cc(C2(O)NC(=O)c3ccccc32)ccc1Cl (configuration not stated)", "inactive"),
    ("CC(=O)N[C@@H](CCC(N)=O)C(=O)O", "inactive"),
    ("C[N+](C)(C)CC[N+]1(C)Cc2c(Cl)c(Cl)c(Cl)c(Cl)c2C1", "inactive"),
    ("C(=C(c1ccccc1)c1ccccc1)c1ccccc1", "inactive"),
    ("Oc1ccc2c(c1)OC[C@@H](N1CCC(O)(c3ccc(F)cc3)CC1)[C@H]2O", "inactive"),
    ("CCC(=O)/C=C/c1ccc(OC)cc1", "inactive"),
    ("C=C(C)C(=O)NCCCN(C)C", "inactive"),
    ("OCC(O)[C@@H](O)[C@H](O)[C@H](O)CO[C@H]1O[C@H](CO)[C@@H](O)[C@H](O)[C@H]1O (some centres not stated)", "inactive"),
    ("CCCCC1CCCCC(=O)O1 (configuration not stated)", "inactive"),
]

* * *

test: qHTS assay to identify small molecule antagonists of the sonic hedgehog signaling (Shh) pathway (AID 1259369); conditions: NIH/3T3 Gli1-Luc reporter, Shh antagonist, luminescence 24 h; series mostly up to 92.4 µM; note: nearly all actives have a fitted effect of over 45% in size
Records with an inconclusive call do not appear. Calls of active or inactive are those of the source. Calls follow the shape of the full dose curve.
Possible outcomes: Yes = active, No = inactive

# compound, assignedClass
measured = [
    ("CC1=CCC2C(C1)C2(C)C (configuration not stated)", "Yes"),
    ("CC(C)CCCC(C)NCCC(C)C (configuration not stated)", "No"),
    ("CCCCCCOC(=O)c1ccccc1O", "No"),
    ("COc1ccc(COC=O)cc1", "No"),
    ("COC[C@H](c1ccc(C(F)(F)F)cc1)N1CCN(C2(C)CCN(C(=O)c3c(C)ncnc3C)CC2)C[C@H]1C", "No"),
    ("C=CC(=O)OCCCCCC", "No"),
    ("CSc1ccc(C=O)cc1", "No"),
    ("O=C(O)CCNC(=O)c1ccc(N=Nc2ccc(O)c(C(=O)O)c2)cc1", "No"),
    ("CCCCCCCCN(C)CCCCCCCC", "No"),
    ("CCCCNc1ccccc1", "No"),
    ("CC/C=C\\CCCCO", "No"),
    ("CCCC(=O)O[C@]1(C(=O)CCl)[C@@H](C)C[C@H]2[C@@H]3CCC4=CC(=O)C=C[C@]4(C)[C@@]3(F)C(=O)C[C@@]21C", "No"),
    ("C=CCn1c(=O)n([C@@H]2O[C@H](CO)[C@@H](O)[C@H]2O)c2nc(N)[nH]c(=O)c21", "No"),
    ("CC(C)COC(=O)c1ccccc1O", "No"),
    ("NC1CCN(c2cccc(Cl)n2)CC1", "Yes"),
    ("CCCC(C)CO (configuration not stated)", "No"),
    ("Nc1nc(F)nc2c1ncn2[C@@H]1O[C@H](CO)[C@@H](O)[C@@H]1O", "No"),
    ("NCCNC(=O)c1ccc(Cl)cn1", "No"),
    ("C/C=C1\\C(=O)C[C@H]2[C@@H]3CCC4=CC(=O)CC[C@]4(C)[C@H]3CC[C@]12C", "Yes"),
    ("CC1=CC(C)C(C=O)C(C)C1 (configuration not stated)", "No"),
    ("c1ccc(SCCSc2ccccc2)cc1", "No"),
    ("N[C@@H](CS)C(=O)O", "No"),
    ("[O-][N+](=Nc1ccccc1)c1ccccc1", "No"),
    ("CCCCOCC(C)OCC(C)O (configuration not stated)", "No"),
    ("COc1ccc(N=[N+]([O-])c2ccc(OC)cc2)cc1", "No"),
    ("CCC(=O)c1cccc(Cl)c1", "No"),
    ("C=C(C)C1CC=C(C)C(O)C1 (configuration not stated)", "No"),
    ("CCN(CC)C(=O)c1ccc(O)c(OC)c1", "No"),
    ("Cc1nccn1CC1CCc2c(c3ccccc3n2C)C1=O (configuration not stated)", "No"),
    ("C=CCSCC1Nc2cc(Cl)c(S(N)(=O)=O)cc2S(=O)(=O)N1 (configuration not stated)", "No"),
    ("CN(C)N=Nc1ccccc1", "No"),
    ("CC(C)c1ccc2oc3nc(N)c(C(=O)O)cc3c(=O)c2c1", "No"),
    ("CC(C)c1cccc(C(C)C)c1N", "No"),
    ("Cc1cc(C)cc(OCC2CNC(=O)O2)c1 (configuration not stated)", "No"),
    ("C=C[Si](OC)(OC)OC", "No"),
    ("CC(=O)CCc1ccc(O)cc1", "No"),
    ("CCCCCCCCCCCCCCCCCCOCC(O)CO (configuration not stated)", "No"),
    ("COc1cccc(OC)c1", "No"),
    ("COC(=O)[C@H]1[C@H]2C[C@@H]3c4[nH]c5cc(OC)ccc5c4CCN3C[C@H]2C[C@@H](OC(=O)COc2ccc(OC)cc2)[C@@H]1OC", "No"),
    ("CCCCCCC(=O)OCC", "No"),
    ("COCCOC(=O)CC#N", "No"),
    ("CN(C)C(=O)Nc1ccccc1", "No"),
    ("C=CCOCC(O)CS(=O)(=O)O (configuration not stated)", "No"),
    ("C#CC(O)CCCCC (configuration not stated)", "No"),
    ("CN1[C@@H]2CC[C@H]1CC(NC(=O)n1c(=O)[nH]c3ccccc31)C2 (some centres not stated)", "No"),
    ("Nc1ccc2cc(S(=O)(=O)O)ccc2c1", "No"),
    ("CC(C)(C)N(CCO)CCO", "No"),
    ("CC1(C)OC(=O)Nc2ccc(Br)cc21", "No"),
    ("CC(C)N1C(=O)c2ccccc2C1=O", "No"),
    ("CCN1CCN(c2cc3c(cc2F)c(=O)c(C(=O)O)cn3C2CC2)CC1", "No"),
    ("N#CCN(CC#N)CCN(CC#N)CC#N", "No"),
    ("CC(C)CCOC(=O)CC(C)C", "No"),
    ("CC(=O)OC(C)(C)C", "No"),
    ("C#CC(C)(O)CC(C)C (configuration not stated)", "No"),
    ("O=C1CC2(CCCC2)CC(=O)N1", "No"),
    ("CCC(C)(C)C1CCC(OC)CC1 (configuration not stated)", "No"),
    ("CCCCN(CCO)CCO", "No"),
]
